Values compiled from patent US20230303681A1.

- study-system: T1, human TMEM106B (human, UniProt Q9NUM4 2-274)
- T1 construct: Full-length, on transiently transfected HEK293 cells, or natively expressed on HeLa, U251 and A549 cells; also called huTMEM106B; huTMEM
- assay-text: FACS A549
Measured MFI of individual entries
Response field accepts a number only; no unit should be typed.

binder	result
anti-TMEM106B antibody TM-50 (antibody, V domains shown, mouse IgG from hybridoma) VH: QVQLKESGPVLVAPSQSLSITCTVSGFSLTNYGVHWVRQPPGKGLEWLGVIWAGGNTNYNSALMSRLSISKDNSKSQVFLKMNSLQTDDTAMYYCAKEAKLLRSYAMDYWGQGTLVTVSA VL: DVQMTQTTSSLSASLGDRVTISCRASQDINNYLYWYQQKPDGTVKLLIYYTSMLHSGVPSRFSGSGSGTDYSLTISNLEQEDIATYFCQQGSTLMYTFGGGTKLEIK	580
anti-TMEM106B antibody TM-14 (antibody, V domains shown, mouse IgG from hybridoma) VH: QVQLQQSGPELVRPGTSVKVSCKASGYAFTNYLIEWVKQRPGQGLEWIGVINPGGGNTDYSEKFKDKATLTADKSSNTAYIQLSSLTSEDSAVYFCARSPYSSYVGYAVDYWGQGTSVTVSS VL: DIQMTQSPSSLSASLGERVSLTCRASQDIGSNLNWLQQEPDGTIKRLIYATSSLDSGVPKRFSGSRSGSDYSLTISSLESEDFVVYYCLQYASSPRTFGGGTRLEIK	896
anti-TMEM106B antibody TM-9 (antibody, V domains shown) VH: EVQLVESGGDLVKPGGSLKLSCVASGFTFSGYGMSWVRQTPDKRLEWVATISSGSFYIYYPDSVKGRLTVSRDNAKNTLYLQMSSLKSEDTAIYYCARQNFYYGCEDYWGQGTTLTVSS VL: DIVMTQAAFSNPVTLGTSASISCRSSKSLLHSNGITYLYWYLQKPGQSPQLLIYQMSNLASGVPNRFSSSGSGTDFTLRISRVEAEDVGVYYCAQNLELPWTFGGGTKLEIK	1990
anti-TMEM106B antibody TM-26 (antibody, V domains shown) VH: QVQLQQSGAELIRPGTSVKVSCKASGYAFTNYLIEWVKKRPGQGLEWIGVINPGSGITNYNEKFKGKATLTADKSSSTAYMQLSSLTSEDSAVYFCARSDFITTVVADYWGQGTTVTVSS VL: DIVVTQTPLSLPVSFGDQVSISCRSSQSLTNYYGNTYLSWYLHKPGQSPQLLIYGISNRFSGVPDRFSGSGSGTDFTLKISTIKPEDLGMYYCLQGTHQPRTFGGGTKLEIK	952

Shifting focus to the binder that follows.
### Prompt Which MFI value belongs to anti-TMEM106B antibody TM-45 (antibody, V domains shown) VH: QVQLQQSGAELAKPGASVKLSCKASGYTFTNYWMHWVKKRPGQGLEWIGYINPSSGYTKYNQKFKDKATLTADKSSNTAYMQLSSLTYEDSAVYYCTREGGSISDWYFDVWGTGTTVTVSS VL: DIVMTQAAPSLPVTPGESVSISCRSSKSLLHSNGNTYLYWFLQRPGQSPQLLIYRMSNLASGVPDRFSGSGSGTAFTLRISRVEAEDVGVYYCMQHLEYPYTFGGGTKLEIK ?
### Response 819
